# test-summary: viability loss with induced miR-34 in A549 – imaging, A549 dox-inducible miR-34, nuclei and caspase counts, primary screen (AID 1347080)
# cond: A549 miR-34 inducible, Hoechst nuclei count, 48 h; stronger effect = lower value; cell number ratio, induced over uninduced
Would you kindly list fold change for each of these molecules?
Answers are plain numbers.

Example entries begin here.
| molecule | fold change |
| --- | --- |
| CCOc1ccccc1O[C@H](c1ccccc1)[C@H]1CNCCO1 (racemic) | 0.937 |
| C[C@@H]1C(=O)OC2[C@H](O)C34[C@H]5C[C@@H](C(C)(C)C)[C@]36[C@@H](OC(=O)[C@@H]6O)O[C@@]4(C(=O)O5)[C@]21O (some centres undefined) | 0.923 |
| CCOC(=O)c1ccnc(C(=O)OCC)c1 | 0.975 |
| CCCc1c(OCCCOc2ccc(OCC(=O)O)cc2)ccc(C(C)=O)c1O | 0.974 |
| O=C1N[C@@H]2[C@@H](O)[C@@H](O)[C@H](O)[C@@H](CO)N2C1=O | 0.921 |
| O=C(c1c(O)c2ccc(Cl)cc2[nH]c1=O)C1CC1 | 0.973 |
| Nc1nc2[nH]cc(CCc3ccc(C(=O)N[C@@H](CCC(=O)O)C(=O)O)cc3)c2c(=O)[nH]1 | 1.36 |
| CC(C)(C)c1cc(C(=O)/C=C/c2ccc(C(=O)O)cc2)cc(C(C)(C)C)c1 | 1.11 |
| C=C1C[C@H](O)[C@H](C/C=C\CCCC(=O)O)[C@H]1/C=C/[C@@H](O)CCCCC | 0.988 |
| O=C(Nc1cccc(Nc2ncc(Br)c(NCCc3cnc[nH]3)n2)c1)N1CCCC1 | 0.952 |

Record fold change per entry; entries follow.
1. CC1(C(=O)O)NCCc2cc(O)c(O)cc21 (centres undefined)
2. COc1cc(N)c(Cl)cc1C(=O)CCC1CCN(CCNS(C)(=O)=O)CC1
3. CCCCC1C(=O)CC[C@H]2[C@@H]1CC(=O)[C@@H]2C/C=C\CCCC(=O)O (some centres undefined)
4. CCCn1c(=O)c2[nH]c(-c3ccccc3)nc2n(CCC)c1=O

result:
1: 0.987; 2: 0.928; 3: 1.07; 4: 1.13

Record fold change per entry; entries follow.
1. CCCCC[C@H](O)/C=C/[C@@H]1[C@@H](CCCCCCCO)[C@@H](O)C[C@H]1O
2. CC[C@@H]1/C=C(\C)C[C@H](C)C[C@H](OC)[C@H]2O[C@@](O)(C(=O)C(=O)N3CCCC[C@H]3C(=O)O[C@H](/C(C)=C/[C@@H]3CC[C@@H](O)[C@H](OC)C3)[C@H](C)[C@@H](O)CC1=O)[C@H](C)C[C@@H]2OC
3. CC(C)[C@H](O)C(=O)O
4. COc1ccc(-c2ccc(=N)n(CCCC(=O)O)n2)cc1
5. CCOC(=O)c1c(Cc2cccc(Cl)c2)[nH]c2c1cc(O)c1ccccc12

result:
1. 0.922
2. 0.914
3. 0.982
4. 0.902
5. 0.954

* * *

# test-summary: viability loss in pontine glioma line – cell-based, SU-DIPG-XIII, MIPE5.0, CellTiter-Glo, qHTS, dose response (AID 1347064);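 for AC50: cells exposed to compound for 48 hours before the viability read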
# cond: CellTiter-Glo ATP luminescence
Inconclusive results are not listed. Activity calls are given as the source filed them. Cut-off not given; nearly all actives show AC50 up to about 23 µM.
measurement-type: AC50

Example entries begin here.
| compound | AC50 |
| --- | --- |
| Nc1nc2c(c(=O)[nH]1)N1CN(c3ccc(C(=O)N[C@@H](CCC(=O)O)C(=O)O)cc3)CC1CN2 (some centres undefined) | inactive |
| Cc1cccc(-c2[nH]ncc2-c2ccc3ncccc3n2)n1 | inactive |
| C[C@H](NC(=O)C(=O)Nc1ccccc1C(C)(C)C)C(=O)N[C@@H](CC(=O)O)C(=O)COc1c(F)c(F)cc(F)c1F | 16.6 µM (active) |
| O=C(O)c1cc(O)c2c(c1)C(=O)c1cccc(O)c1C2=O | inactive |
| Nc1nc(Nc2ccc(S(N)(=O)=O)cc2)nn1C(=O)c1c(F)cccc1F | 4.68 µM (active) |
| O=C(Nc1ccccc1Br)N[C@@H]1CCN(c2ccc(C(F)(F)F)cn2)C1 | inactive |

Record AC50 per entry; entries follow.
1. O=C(CCCCCCC(=O)Nc1cccnc1)NO
2. COc1ccc(C(=O)N2CCN(c3ccc4c(c3)CCC(=O)N4)CC2)cc1OC
3. CO[C@H]1/C=C\C=C(\C)C(=O)NC2=CC(=O)C(NCCN(C)C)=C(C[C@@H](C)C[C@H](OC)[C@H](O)[C@@H](C)/C=C(/C)[C@@H]1OC(N)=O)C2=O

result:
1: 5.9 µM (active); 2: inactive; 3: 0.118 µM (active)

* * *

# test-summary: JHH-DIPG-1 glioma cell viability, MIPE5.0 library, CellTiter-Glo luminescence, qHTS (AID 1347067);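 note: cells exposed to compound for 48 hours before readout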
# cond: JHH-DIPG-1 glioma viability, CellTiter-Glo ATP luminescence
Records with an inconclusive call do not appear. Active and inactive are the calls of the source. Cut-off not given; nearly all actives show AC50 up to about 26 µM.
Hi! Could you answer with just one of these? active, inactive

query: Hi, do you know how `COc1nc(C)cnc1NS(=O)(=O)c1cccnc1-c1ccc(-c2nnco2)cc1` came out in this test?
result: inactive

* * *

# test-summary: growth inhibition of DIPG cells – cell-based, MIPE5.0 library, qHTS (AID 1347068);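 for IC50: cells exposed to compound for 48 hours before viability readout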
# cond: SU-DIPG-XXV viability
Results filed as inconclusive are left out. The source made the active and inactive calls. The limit is not given here; nearly all actives have IC50 up to about 30 µM.
measurement-type: IC50

| molecule | IC50 |
| --- | --- |
| Cc1cc(OCCCc2c3n(c4c(-c5c(C)nn(C)c5C)c(Cl)ccc24)[C@H](C)CN(c2cn(C)c4ccc(C(=O)O)cc24)C3=O)cc(C)c1Cl | 3.72 µM (active) |
| C=CC(=O)Nc1cc(Nc2nccc(-c3cn(C)c4ccccc34)n2)c(OC)cc1N(C)CCN(C)C | 9.34 µM (active) |
| CCOC(=O)/C=C/[C@H](C[C@@H]1CCNC1=O)NC(=O)[C@@H](CC(=O)[C@@H](NC(=O)c1cc(C)on1)C(C)C)Cc1ccc(F)cc1 | inactive |
| CN1CCN(c2ccc(Nc3ncc4cc(C#N)c(=O)n(C5CCCC5)c4n3)cc2)CC1 | 4.17 µM (active) |
| CC(C(C)N1CC(=O)NC(=O)C1)N1CC(=O)NC(=O)C1 (stereo not drawn) | inactive |
| O=C1NC(=O)C(c2cnc3ccccn23)=C1c1cn2c3c(cc(F)cc13)CN(C(=O)N1CCCCC1)CC2 | 20.9 µM (active) |
| COc1ccc2c3n(c(=NC(=O)c4cccnc4)nc2c1OC)CCN3 | inactive |
| O=C(Nc1nnc(-c2ccco2)o1)c1cc(-c2ccccc2)nc2ccccc12 | inactive |

Record IC50 per entry; entries follow.
1. C[C@H]1CN(C[C@H](Cc2ccccc2)C(=O)NCC(=O)O)CC[C@@]1(C)c1cccc(O)c1
2. CNC(=O)c1cc(Oc2ccc(NC(=O)Nc3cc(C(C)(C)C)nn3-c3ccc4ncccc4c3)c(F)c2)ccn1
3. CN(C)CC(C)(C)CNc1nn2c(-c3ccccc3)nnc2cc1C1CCC1
4. CN1CCN(C(=O)[C@H]2[C@@H](C(=O)O)[C@H]3CC[C@@H]2O3)CC1
5. Cc1cnc(CNC(=O)c2c(=O)c3ccc(N4CCCN(C)CC4)nc3n3c2sc2ccccc23)cn1
6. C[C@]12CC[C@H](O)CC1=CCC1C2CC[C@]2(C)C(n3cnc4ccccc43)=CCC12 (stereo partly drawn)
7. COC(=O)Nc1ccc(-c2nc(N3CCOCC3)c3cnn(C4CCN(Cc5cccnc5)CC4)c3n2)cc1
8. Cc1cc(Nc2cc(N3CCN(C)CC3)nc(Sc3ccc(NC(=O)C4CC4)cc3)n2)n[nH]1

result:
["inactive", "20.9 µM (active)", "inactive", "inactive", "inactive", "inactive", "13.2 µM (active)", "8.33 µM (active)"]

Record IC50 per entry; entries follow.
1. CC(C)=CCC/C(C)=C/CC/C(C)=C/CSc1ccccc1C(=O)O
2. NC(=O)c1cccc(-c2cc(Nc3ccc(OC(F)(F)F)cc3)ncn2)c1

result:
["inactive", "18.6 µM (active)"]

* * *

# test-summary: drug combination growth inhibition, ovarian cancer – cell-based, oncology-focused library, rucaparib conditional, profiling panel (AID 1508598)
# cond: patient-derived ovarian cancer cells, CellTiter-Glo viability, 144 h; at 0.00488 µM; OCI-C5x cells; with rucaparib 10 µM; stronger effect = lower value; 100% = cells with rucaparib alone
measurement-type: viability (%)
One number for each entry, in %.

| compound | viability [%] |
| --- | --- |
| Cc1ccc(C(=O)N(CCCN)[C@@H](c2nc3cc(Cl)ccc3c(=O)n2Cc2ccccc2)C(C)C)cc1 | 44.7 |
| CNC(=O)c1ccc(N2C(=S)N(c3ccc(C#N)c(C(F)(F)F)c3)C(=O)C2(C)C)cc1F | 110 |
| COCCn1c2c([n+](Cc3cnccn3)c1C)C(=O)c1ccccc1C2=O | 90.5 |
| CNC(=O)c1cc(Oc2ccc(NC(=O)Nc3ccc(Cl)c(C(F)(F)F)c3)c(F)c2)ccn1 | 109 |
| COc1cc(Nc2nc3ccccc3nc2NS(=O)(=O)c2ccc(NC(=O)c3ccc(C)c(OC)c3)cc2)cc(OC)c1 | 110 |

Record viability per entry; entries follow.
1. COc1ccc2cc(-c3nc(-c4ccc(S(C)=O)cc4)[nH]c3-c3ccncc3)ccc2c1 (centres undefined)
2. CCN1CCN(Cc2ccc(-c3cc4c(N[C@H](C)c5ccccc5)ncnc4[nH]3)cc2)CC1
3. COc1c(C)cnc(Cn2cnc3c(Cl)nc(N)nc32)c1C
4. NC(=O)c1ccc(I)c([N+](=O)[O-])c1

result:
[106, 110, 123, 113]
